Kindly supply the reported fluorescence slope values for the records listed here.
Assayed System: Voltage-gated potassium channel subunit beta-2 (Rattus norvegicus) (UniProt P62483)
Sequence (P62483 whole entry, looked up): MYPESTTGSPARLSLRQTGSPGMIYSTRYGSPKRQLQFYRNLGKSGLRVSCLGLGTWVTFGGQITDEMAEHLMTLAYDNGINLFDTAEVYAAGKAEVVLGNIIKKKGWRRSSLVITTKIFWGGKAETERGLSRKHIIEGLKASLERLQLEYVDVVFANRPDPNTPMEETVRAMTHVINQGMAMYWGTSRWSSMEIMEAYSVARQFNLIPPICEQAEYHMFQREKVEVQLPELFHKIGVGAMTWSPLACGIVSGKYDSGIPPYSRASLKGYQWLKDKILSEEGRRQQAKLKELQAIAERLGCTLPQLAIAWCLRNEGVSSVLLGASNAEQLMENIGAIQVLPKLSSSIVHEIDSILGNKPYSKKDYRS
Protocol: inhibitors of rat Kvbeta2 reductase activity – biochemical, NADPH fluorescence, primary screen (AID 622);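 note: slope of raw intensity against log time taken from 70 to 1610 s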
Experimental Setup: recombinant KvBeta, 4-cyanobenzaldehyde reduction, at 10 µM, stronger effect = higher value
Hey, just send me the number, nothing else.

For Voltage-gated potassium channel subunit beta-2 (Rattus norvegicus) (UniProt P62483), provide fluorescence slope of `CCOc1cc(C)c(Cl)cc1S(=O)(=O)N(C)C` please.
-0.565

Same read-out for `Cc1cc(Cl)c(S(=O)(=O)NC2CCCCC2)cc1OCC(=O)Nc1nncs1` ?
-0.506

Same read-out for Oc1ccc(N2CCN(C(c3cccnc3)c3nnnn3Cc3ccccc3)CC2)cc1 (centres undefined) ?
-0.468

Same read-out for `COC(=O)c1oc2ccc(OC)cc2c1N` ?
-0.523

Same read-out for `Cc1ccc(C)c(SCC(=O)Nc2nnc(-c3ccccc3)o2)c1` ?
-0.586

Same read-out for `CC(C)(C)OC(=O)N1CCC(C(=O)N[C@H](Cc2ccccc2)C(=O)O)CC1` ?
-0.323

Same read-out for `Cc1ccc(S(=O)(=O)NCCc2ccncc2)cc1` ?
-0.578

Same read-out for `Cc1cc(NC(=O)c2ccc3nc(-c4ccccc4)c(-c4ccccc4)nc3c2)no1` ?
-0.463

Same read-out for `O=c1c[n+]([O-])c2ccccc2n1OCc1ccccn1` ?
-0.464

Same read-out for `COc1ccccc1N1CCN(C(=O)CSc2nc(-c3ccccc3)cc(=O)[nH]2)CC1` ?
-0.509

Same read-out for `O=C(Nc1ccc(F)cc1)c1cccc2c1C(=O)N(Cc1ccccn1)C2` ?
-0.576

Same read-out for `CCN1CCN(Cc2c(C)[nH]c3ccc(OC)cc3c2=O)CC1` ?
-0.57

Same read-out for `CCCCCn1c(=O)[nH]c2cc(C(=O)NCCCN3CCCCC3)ccc2c1=O` ?
-0.298

Same read-out for `CN(c1cccc(NC(=O)COc2ccccc2)c1)S(C)(=O)=O` ?
-0.49

Same read-out for `CCn1cc(/C=C(/C#N)S(=O)(=O)c2ccccc2)cn1` ?
-0.488

Same read-out for `O=C1CCc2cc(OCCCCc3nnnn3C3CCCCC3)ccc2N1` ?
-0.456

Same read-out for CCC(C)OC(=O)n1ccc(C(=O)Nc2nccs2)n1 (centres undefined) ?
-0.575

Same read-out for `Cc1cc(O)c(NC(=O)c2ccc(Br)o2)cc1C` ?
-0.299

Same read-out for `CCCCOc1ccccc1P(=O)(O)CP(=O)(c1ccccc1)c1ccccc1` ?
-0.436

Same read-out for `COCCn1c(-c2ccc(OC)c(OC)c2)nc2ccccc21` ?
-0.536

Same read-out for `COc1cc(C(=O)Nc2ccccn2)cc(OC)c1OC` ?
-0.398

Same read-out for `O=C(NC1CCCC1)c1ccc(S(=O)(=O)N2CCCC2)cc1` ?
-0.344

Same read-out for CCN1C(=O)OC2(CCCCC2)C1(C)O (centres undefined) ?
-0.566

Same read-out for `Cc1ccc(CNC(=O)CSc2n[nH]c(N)n2)cc1` ?
-0.579

* * *

Protocol: reduction of polyQ htt aggregates in cells – imaging, exon1htt(103Q)mCFP cells, high-content imaging, primary screen (AID 483);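 note: compound exposure lasted 3 days before fixation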
Experimental Setup: exon1htt(103Q)mCFP cell line, aggregate imaging, at 2 µM; stronger effect = higher value
The source made the active and inactive calls.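 Rule for the calls: active = visual image review flags a hit and inhibition of aggregation exceeds 20%; inconclusive = visual hit but inhibition at or below 20%; inactive = no hit on visual image review.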
Kindly supply the reported inhibition of aggregation values for the records listed here.

What value of inhibition of aggregation has been recorded for this entry: `CCS(=O)(=O)c1nc2ccccc2n1CC(=O)N1CCOCC1`
-22.2% (inactive)

Same read-out for `COc1cc(NC(=O)c2cc(OC)c(OC)c(OC)c2)c(OC)cc1NC(=O)CN1CCCCC1` ?
12.2% (inactive)

Same read-out for Cc1nnc(SCC(=O)Nc2ccc3c(c2)OCCO3)n1CC1CCCO1 (stereo unspecified) ?
-0.8% (inactive)

Same read-out for O=c1c2c3nc4ccccc4nc3n(CC3CCCO3)c2ncn1CCc1ccccc1 (stereo unspecified) ?
-0.4% (inactive)

Same read-out for CC1(c2ccncc2)Nc2ccccc2-c2nc3ccccc3n21 (stereo unspecified) ?
6.2% (inactive)

Same read-out for `CCCn1c(SCC(=O)Nc2nnc(-c3ccccc3)s2)nnc1-c1ccccn1` ?
14.9% (inactive)

Same read-out for `CCCn1c(NCc2ccc3c(c2)OCO3)nc2ccccc21` ?
2.4% (inactive)

Same read-out for O=C(O)C1CC(=O)N(c2ccc(Br)cc2)C1 (stereo unspecified) ?
-10.6% (inactive)

Same read-out for `CC(C)CCn1c(SCC#N)nc2c(sc3ccccc32)c1=O` ?
0.6% (inactive)

Same read-out for `CCn1c(COc2cccc3ccccc23)nnc1SCC(N)=O` ?
-3.1% (inactive)

Same read-out for CSc1ccccc1C(=O)NC1CC2CCC1C2 (stereo unspecified) ?
13.1% (inactive)

Every entry's value here was drawn from PubChem BioAssay.
